Would you kindly list DC50 for each of these compounds?
target: IKZF1 (Homo sapiens, UniProt Q13422+Q96SW2); construct: expressed in transfected cells; assay: HEK293 HiBiT in vitro degradation of IKZF1; format: cell-based; details: HEK293 HiBiT, 18-24 hr incubation, normalized to DMSO control; read-out: IKZF1 EC50
Sequence (Q13422 whole entry): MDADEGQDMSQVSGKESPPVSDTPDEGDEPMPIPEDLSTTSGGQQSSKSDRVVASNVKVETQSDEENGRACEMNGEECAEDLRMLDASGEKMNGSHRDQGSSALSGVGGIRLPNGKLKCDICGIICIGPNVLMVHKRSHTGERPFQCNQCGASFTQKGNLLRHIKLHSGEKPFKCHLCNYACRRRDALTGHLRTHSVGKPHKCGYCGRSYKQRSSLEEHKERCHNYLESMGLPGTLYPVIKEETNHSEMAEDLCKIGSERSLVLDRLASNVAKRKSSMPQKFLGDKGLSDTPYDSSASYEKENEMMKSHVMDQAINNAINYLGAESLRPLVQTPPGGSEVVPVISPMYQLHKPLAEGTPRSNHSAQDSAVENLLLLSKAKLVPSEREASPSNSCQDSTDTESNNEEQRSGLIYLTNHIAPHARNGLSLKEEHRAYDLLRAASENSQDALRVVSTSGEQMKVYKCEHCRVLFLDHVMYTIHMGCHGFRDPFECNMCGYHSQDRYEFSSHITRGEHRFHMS
Sequence (Q96SW2 whole entry): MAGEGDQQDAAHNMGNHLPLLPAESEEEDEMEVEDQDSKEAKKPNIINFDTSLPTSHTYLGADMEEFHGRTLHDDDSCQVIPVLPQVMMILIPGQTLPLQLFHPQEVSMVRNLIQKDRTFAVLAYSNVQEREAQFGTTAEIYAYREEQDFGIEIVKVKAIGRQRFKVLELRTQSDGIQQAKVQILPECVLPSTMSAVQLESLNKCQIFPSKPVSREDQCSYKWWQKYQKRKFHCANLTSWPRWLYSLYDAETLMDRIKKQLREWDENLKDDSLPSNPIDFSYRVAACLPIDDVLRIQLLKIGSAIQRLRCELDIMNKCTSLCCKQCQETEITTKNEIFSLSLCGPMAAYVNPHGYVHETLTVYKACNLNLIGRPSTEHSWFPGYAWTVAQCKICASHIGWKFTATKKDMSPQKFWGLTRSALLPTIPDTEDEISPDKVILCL
Sequence (Q16531 whole entry partner): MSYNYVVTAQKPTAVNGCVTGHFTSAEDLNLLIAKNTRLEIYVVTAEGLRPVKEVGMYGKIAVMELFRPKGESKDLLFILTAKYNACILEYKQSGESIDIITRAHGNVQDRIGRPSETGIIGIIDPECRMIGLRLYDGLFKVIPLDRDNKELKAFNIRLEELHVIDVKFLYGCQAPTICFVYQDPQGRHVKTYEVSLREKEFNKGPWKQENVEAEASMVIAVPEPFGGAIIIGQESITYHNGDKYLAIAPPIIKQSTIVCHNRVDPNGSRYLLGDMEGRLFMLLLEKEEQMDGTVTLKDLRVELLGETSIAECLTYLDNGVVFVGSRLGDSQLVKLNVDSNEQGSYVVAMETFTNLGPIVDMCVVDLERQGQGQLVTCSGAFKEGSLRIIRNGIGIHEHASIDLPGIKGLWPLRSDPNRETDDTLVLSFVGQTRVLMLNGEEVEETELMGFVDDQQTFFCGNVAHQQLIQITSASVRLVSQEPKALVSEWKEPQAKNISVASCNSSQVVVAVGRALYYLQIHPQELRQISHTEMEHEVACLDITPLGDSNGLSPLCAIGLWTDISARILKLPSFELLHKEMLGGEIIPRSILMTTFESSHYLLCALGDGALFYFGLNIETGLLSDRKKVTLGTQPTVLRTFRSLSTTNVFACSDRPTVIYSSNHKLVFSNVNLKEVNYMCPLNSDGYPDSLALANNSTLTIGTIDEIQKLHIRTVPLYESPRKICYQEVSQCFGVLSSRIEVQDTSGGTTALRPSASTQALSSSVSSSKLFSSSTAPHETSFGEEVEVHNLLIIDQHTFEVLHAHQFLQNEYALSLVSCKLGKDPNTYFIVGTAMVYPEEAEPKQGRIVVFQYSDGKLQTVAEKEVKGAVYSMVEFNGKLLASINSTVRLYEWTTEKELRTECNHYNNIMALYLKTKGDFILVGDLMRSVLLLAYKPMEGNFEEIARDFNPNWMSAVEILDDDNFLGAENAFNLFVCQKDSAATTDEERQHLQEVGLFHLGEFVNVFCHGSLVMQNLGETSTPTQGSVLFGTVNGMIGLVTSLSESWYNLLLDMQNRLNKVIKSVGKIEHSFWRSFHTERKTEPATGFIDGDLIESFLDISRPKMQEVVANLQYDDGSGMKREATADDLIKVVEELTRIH
Numbers only, in µM.

>>> endpoint_result("O=C1CCC(N2Cc3c(ccc(C[C@H]4OCCC[C@@H]4N[C@H]4CC[C@@H](F)CC4)c3F)C2=O)C(=O)N1 (single isomer, unassigned)")
0.138

Now consider the entry below.
So, CC1CC[C@H](NC2CCC(F)(F)CC2)[C@@H](Cc2ccc3c(c2)CN(C2CCC(=O)NC2=O)C3=O)C1 (single isomer, unassigned) [Example 324] ? Its DC50 was 0.016
